System: ACHN renal
PROCEDURE_SUMMARY: NCI tumour cell line growth inhibition, 48 h
// reported TGI for each item listed

- COMPOUND: "Nc1ncnc2c1N=C(c1ccc3c(c1)OCO3)CC(c1ccc([N+](=O)[O-])cc1)N2 (centres undefined)"
  TGI: "> 100 µM"
- COMPOUND: "Cc1ccc(OCC2OC(n3cnc4nc(N)nc(Cl)c43)CC2Oc2ccc(C)cc2)cc1 (centres undefined)"
  TGI: "35 µM"
- COMPOUND: "COc1ccc(/C=C/c2cc(OC)c(OC)c(OC)c2)cc1"
  TGI: "> 100 µM"
- COMPOUND: "CCNCCCn1c2c(c3ccc(Cl)cc3c1=O)C(=O)c1cc(OC)cnc1-2"
  TGI: "1.35 µM"

###

Test system: T-47D breast
PROCEDURE_SUMMARY: NCI tumour cell line growth inhibition, 48 h; in the data active = GI50 below about 0.43 µM; inactive = the rest
Labels: yes (1) = active, no (0) = inactive

- COMPOUND: "COc1cccc(-c2c[nH]c3c(N/N=C/c4ccncc4)ncnc23)c1"
  CLASS_ASSIGNMENT: "no (0)"
- COMPOUND: "CSC1=C(N)C(=O)c2[nH]cc(CO)c2C1=N"
  CLASS_ASSIGNMENT: "yes (1)"
- COMPOUND: "Cc1[nH]c2ccccc2c1CCCO"
  CLASS_ASSIGNMENT: "no (0)"
- COMPOUND: "CCNCCCn1c2c(c3ccc(Cl)cc3c1=O)C(=O)c1cc(OC)cnc1-2"
  CLASS_ASSIGNMENT: "yes (1)"
- COMPOUND: "[Cl][Sn]([c]1ccccc1)([c]1ccccc1)[c]1ccccc1"
  CLASS_ASSIGNMENT: "yes (1)"
- COMPOUND: "COc1ccc(CCN2CC=Cn3c2nc2ccccc2c3=O)cc1"
  CLASS_ASSIGNMENT: "no (0)"
- COMPOUND: "Cc1cc2c(cc1Cl)SC1=NN(C)C(C)N1S2(=O)=O (stereo unspecified)"
  CLASS_ASSIGNMENT: "no (0)"
- COMPOUND: "C=C1C(O)C2C(=C(CC)C13CC3)C(=O)C(C)(C)C2OC (stereo unspecified)"
  CLASS_ASSIGNMENT: "no (0)"
- COMPOUND: "O=C1OCC2=C1C(c1cccc(Cl)c1)c1cc3c(cc1N2CCO)OCCO3 (stereo unspecified)"
  CLASS_ASSIGNMENT: "yes (1)"
- COMPOUND: "O=C(Nc1cccc(-n2cc(-c3ccncc3)c(-c3ccc(Cl)c(O)c3)n2)c1)Nc1cc(C(F)(F)F)cc(C(F)(F)F)c1"
  CLASS_ASSIGNMENT: "no (0)"
- COMPOUND: "Cc1cc(NCCCN(C)C)c2ccc3c(ccc4c(NCCCN(C)C)cc(C)nc43)c2n1"
  CLASS_ASSIGNMENT: "no (0)"

###

Tested on: SF-268 CNS
PROCEDURE_SUMMARY: NCI tumour cell line growth inhibition, 48 h; in the data active = GI50 below about 0.43 µM; inactive = the rest
Labels: active, inactive

- COMPOUND: "CCNCCCn1c2c(c3ccc(Cl)cc3c1=O)C(=O)c1cc(OC)cnc1-2"
  CLASS_ASSIGNMENT: "active"
- COMPOUND: "Cc1cc([N+](=O)[O-])c(NS(=O)(=O)c2cccc(C(=O)O)c2)cc1-c1cccnc1"
  CLASS_ASSIGNMENT: "inactive"
- COMPOUND: "CC1(C)C2CCC13C(=O)C1OC3(C2)C2C(=O)c3ccccc3C(=O)C12 (stereo not drawn)"
  CLASS_ASSIGNMENT: "inactive"
- COMPOUND: "C=CCN=C(N/N=C/c1ccc([N+](=O)[O-])o1)NS(=O)(=O)c1cc(C(=O)Nc2ccc(Cl)cc2)c(Cl)cc1SC"
  CLASS_ASSIGNMENT: "inactive"
- COMPOUND: "CN1CCN(C(=O)C(C)(C)c2ccc(C(=O)Nc3cn4cc(-c5ccncc5)ccc4n3)cc2)CC1"
  CLASS_ASSIGNMENT: "active"
- COMPOUND: "Cc1c(Cl)cccc1C(=O)Nc1nc2c(s1)CN(C(=O)c1ccc(C(F)(F)F)cc1)CC2"
  CLASS_ASSIGNMENT: "inactive"
- COMPOUND: "CSC1=C(N)C(=O)c2[nH]cc(CO)c2C1=N"
  CLASS_ASSIGNMENT: "active"
- COMPOUND: "O=C1c2cc3c(cc2[C@@H]2[C@H]1c1ccc([N+](=O)[O-])cc1C(=O)N2CCCBr)OCO3"
  CLASS_ASSIGNMENT: "active"
- COMPOUND: "NS(=O)(=O)c1ccc(/C=C/c2ccc(F)cc2)cc1"
  CLASS_ASSIGNMENT: "inactive"
- COMPOUND: "COc1ccc(C/C(C)=C(/c2ccc(OCCN3CCCCC3)cc2)c2ccc(OC(=O)NCc3ccccc3)cc2)cc1"
  CLASS_ASSIGNMENT: "active"
- COMPOUND: "NCCCC[C@@H]1NC(=O)[C@H]2CCCN2C(=O)[C@H](Cc2ccccc2)CNC(=O)[C@H](Cc2ccccc2)NC1=O"
  CLASS_ASSIGNMENT: "inactive"
- COMPOUND: "Cc1cc2c(cc1Cl)SC1=NN(C)C(C)N1S2(=O)=O (stereo not drawn)"
  CLASS_ASSIGNMENT: "inactive"
- COMPOUND: "CCCCCCC[CH2][Sn]([CH2]CCCCCCC)([O]c1cccc2cccnc12)[O]c1cccc2cccnc12"
  CLASS_ASSIGNMENT: "inactive"
